- System: Crude diglycosidase
- procedureDetails: Examination of temperature in the conversion into isoflavone aglycons by diglycosidase using soybean materials
- Assay type: biochemical, Penicillium multicolor IAM7153
- Design: concentration or dose not given beside the values
- statedConditions: 30° C., heat treatment of enzyme no, reaction time 1 h
endpointLabel: Decomposition efficiency of daidzin family in defatted soybean (%)
Numbers only, in %.

[
  {
    "chemicalString": "O=C(O)CC(=O)OC[C@H]1O[C@@H](Oc2ccc3c(=O)c(-c4ccc(O)cc4)coc3c2)[C@H](O)[C@@H](O)[C@@H]1O",
    "uom": "%",
    "obsValue": 46.6
  }
]

We next turn to a different compound, shown below.
## Task Annotate the compound O=c1c(-c2ccc(O)cc2)coc2cc(O)ccc12 with its measured Decomposition efficiency of daidzin family in defatted soybean.
## Result 53.4

###

- Tested on: Crude diglycosidase
- procedureDetails: Examination of substrate concentration in the conversion into isoflavone aglycons by diglycosidase using soybean materials;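 note: percent of the isoflavone family total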
- Type: biochemical, Penicillium multicolor IAM7153
- statedConditions: concentrated soybean protein, substrate concentration 5%, heat treatment of enzyme no, reaction time 0 h
endpointLabel: Decomposition efficiency: ratio of each glycoside/aglycon within its isoflavone family

[
  {
    "chemicalString": "COc1cc2c(=O)c(-c3ccc(O)cc3)coc2cc1O",
    "obsValue": "11.2%"
  },
  {
    "chemicalString": "O=C(O)CC(=O)OC[C@H]1O[C@@H](Oc2cc(O)c3c(=O)c(-c4ccc(O)cc4)coc3c2)[C@H](O)[C@@H](O)[C@@H]1O",
    "obsValue": "not detected"
  },
  {
    "chemicalString": "O=C(O)CC(=O)OC[C@H]1O[C@@H](Oc2ccc3c(=O)c(-c4ccc(O)cc4)coc3c2)[C@H](O)[C@@H](O)[C@@H]1O",
    "obsValue": "not detected"
  }
]

###

- System: Crude diglycosidase
- procedureDetails: Examination of pH in the conversion into isoflavone aglycons by diglycosidase using soybean materials
- Format: biochemical, Penicillium multicolor IAM7153
- statedConditions: pH4, heat treatment of enzyme no, reaction time 0 h, 55° C.
Give Decomposition efficiency of glycitin family in roasted soy flour for every item shown.
One number for each entry.

[
  {
    "molecule": "COc1cc2c(=O)c(-c3ccc(O)cc3)coc2cc1O[C@@H]1O[C@H](COC(C)=O)[C@@H](O)[C@H](O)[C@H]1O [acetylglycitin, 6″-O-acetylglycitin]",
    "obsValue": 34.8
  }
]

# map each molecule to its Decomposition efficiency of glycitin family in roasted soy flour
1. COc1cc2c(=O)c(-c3ccc(O)cc3)coc2cc1O[C@@H]1O[C@H](CO)[C@@H](O)[C@H](O)[C@H]1O [glycitin]
2. COc1cc2c(=O)c(-c3ccc(O)cc3)coc2cc1O [glycitein]

## Result
[56.6, 8.6]

###

- Test system: Crude diglycosidase
- procedureDetails: Examination of substrate concentration in the conversion into isoflavone aglycons by diglycosidase using soybean materials;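 note: percent of the isoflavone family total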
- Format: biochemical, Penicillium multicolor IAM7153
- statedConditions: concentrated soybean protein, substrate concentration 5%, heat treatment of enzyme no, reaction time 6 h
endpointLabel: Decomposition efficiency: ratio of each glycoside/aglycon within its isoflavone family (%)
One number for each entry, in %.

[
  {
    "chemicalString": "CC(=O)OC[C@H]1O[C@@H](Oc2cc(O)c3c(=O)c(-c4ccc(O)cc4)coc3c2)[C@H](O)[C@@H](O)[C@@H]1O",
    "uom": "%",
    "obsValue": 17.8
  }
]

# map each molecule to its Decomposition efficiency: ratio of each glycoside/aglycon within its isoflavone family
1. COc1cc2c(=O)c(-c3ccc(O)cc3)coc2cc1O[C@@H]1O[C@H](COC(=O)CC(=O)O)[C@@H](O)[C@H](O)[C@H]1O
2. COc1cc2c(=O)c(-c3ccc(O)cc3)coc2cc1O[C@@H]1O[C@H](COC(C)=O)[C@@H](O)[C@H](O)[C@H]1O

## Result
1: 0.2; 2: 12.3

###

- Test system: Crude diglycosidase
- procedureDetails: Examination of temperature in the conversion into isoflavone aglycons by diglycosidase using soybean materials
- Type: biochemical, Penicillium multicolor IAM7153
- Set-up: concentration or dose not given beside the values
- statedConditions: 45° C., heat treatment of enzyme no, reaction time 6 h
endpointLabel: Decomposition efficiency of glycitin family in defatted soybean

[
  {
    "molecule": "COc1cc2c(=O)c(-c3ccc(O)cc3)coc2cc1O[C@@H]1O[C@H](COC(=O)CC(=O)O)[C@@H](O)[C@H](O)[C@H]1O [malonylglycitin, 6″-O-malonylglycitin]",
    "systemName": "Crude diglycosidase",
    "obsValue": "41.0%"
  },
  {
    "molecule": "COc1cc2c(=O)c(-c3ccc(O)cc3)coc2cc1O[C@@H]1O[C@H](CO)[C@@H](O)[C@H](O)[C@H]1O [glycitin]",
    "systemName": "Crude diglycosidase",
    "obsValue": "not detected"
  },
  {
    "molecule": "COc1cc2c(=O)c(-c3ccc(O)cc3)coc2cc1O [glycitein]",
    "systemName": "Crude diglycosidase",
    "obsValue": "59.0%"
  },
  {
    "molecule": "COc1cc2c(=O)c(-c3ccc(O)cc3)coc2cc1O[C@@H]1O[C@H](COC(C)=O)[C@@H](O)[C@H](O)[C@H]1O [acetylglycitin, 6″-O-acetylglycitin]",
    "systemName": "Crude diglycosidase",
    "obsValue": "not detected"
  }
]

###

- Test system: Crude diglycosidase
- procedureDetails: Examination of pH in the conversion into isoflavone aglycons by diglycosidase using soybean materials
- Type: biochemical, Penicillium multicolor IAM7153
- statedConditions: pH8.5, heat treatment of enzyme no, reaction time 0 h, 55° C.
- Protocol: A substrate solution of 450 μL was prepared by suspending 50 mg of each soybean material (roasted soy flour (manufactured by Fuji Shokuryo K.K.), soymilk (manufactured by Gitoh Shokuhin K.K.), defatted soybean (manufactured by Fuji Seiyu K.K.), concentrated soybean protein (manufactured by Fuji Seiyu K.K.)), and adjusting the pH to 2 to 11 with hydrochloric acid or sodium hydroxide. […]
endpointLabel: Decomposition efficiency of glycitin family in roasted soy flour
Numbers only.

[
  {
    "chemicalString": "COc1cc2c(=O)c(-c3ccc(O)cc3)coc2cc1O[C@@H]1O[C@H](CO)[C@@H](O)[C@H](O)[C@H]1O",
    "obsValue": 59.4
  }
]

# map each compound to its Decomposition efficiency of glycitin family in roasted soy flour
1. COc1cc2c(=O)c(-c3ccc(O)cc3)coc2cc1O[C@@H]1O[C@H](COC(C)=O)[C@@H](O)[C@H](O)[C@H]1O
2. COc1cc2c(=O)c(-c3ccc(O)cc3)coc2cc1O

## Result
31.0
9.6

###

- Test system: Crude diglycosidase
- procedureDetails: Examination of pH in the conversion into isoflavone aglycons by diglycosidase using soybean materials
- Format: biochemical, Penicillium multicolor IAM7153
- statedConditions: pH2.6; heat treatment of enzyme: yes; reaction time 6 h
endpointLabel: Decomposition efficiency of glycitin family in defatted soybean

[
  {
    "molecule": "COc1cc2c(=O)c(-c3ccc(O)cc3)coc2cc1O[C@@H]1O[C@H](COC(C)=O)[C@@H](O)[C@H](O)[C@H]1O [acetylglycitin, 6″-O-acetylglycitin]",
    "systemName": "Crude diglycosidase",
    "obsValue": "not detected"
  },
  {
    "molecule": "COc1cc2c(=O)c(-c3ccc(O)cc3)coc2cc1O[C@@H]1O[C@H](CO)[C@@H](O)[C@H](O)[C@H]1O [glycitin]",
    "systemName": "Crude diglycosidase",
    "obsValue": "not detected"
  },
  {
    "molecule": "COc1cc2c(=O)c(-c3ccc(O)cc3)coc2cc1O [glycitein]",
    "systemName": "Crude diglycosidase",
    "obsValue": "not detected"
  },
  {
    "molecule": "COc1cc2c(=O)c(-c3ccc(O)cc3)coc2cc1O[C@@H]1O[C@H](COC(=O)CC(=O)O)[C@@H](O)[C@H](O)[C@H]1O [malonylglycitin, 6″-O-malonylglycitin]",
    "systemName": "Crude diglycosidase",
    "obsValue": "100.0%"
  }
]

###

- System: β-Glucosidase derived from A. niger
- procedureDetails: Reactivity toward various isoflavone glycosides (HPLC)
- Assay type: biochemical, Aspergillus niger
- Design: unit not given here
- statedConditions: Reaction time 6 h; 55 °C, pH 4.0
- Description: Diglycosidase was diluted with an acetate buffer of pH 4.0 to prepare a 0.75 AU/mL enzyme solution. […] The reaction was carried out at 55° C. and isolation of an aglycon isoflavone from an isoflavone glycoside in the reaction mixture was detected by HLPC at 0, 1, 3, and 6 hours of the reaction. […]
Give glucoside for every item shown.
Numbers only.

[
  {
    "compound": "O=c1c(-c2ccc(O)cc2)coc2cc(O[C@@H]3O[C@H](CO)[C@@H](O)[C@H](O)[C@H]3O)cc(O)c12 [genistin]",
    "systemName": "β-Glucosidase derived from A. niger",
    "glucoside": 0
  }
]

# map each compound to its glucoside
1. COc1cc2c(=O)c(-c3ccc(O)cc3)coc2cc1O[C@@H]1O[C@H](CO)[C@@H](O)[C@H](O)[C@H]1O [glycitin]
2. O=c1c(-c2ccc(O)cc2)coc2cc(O[C@@H]3O[C@H](CO)[C@@H](O)[C@H](O)[C@H]3O)ccc12 [daidzin]
3. O=C(O)CC(=O)OC[C@H]1O[C@@H](Oc2ccc3c(=O)c(-c4ccc(O)cc4)coc3c2)[C@H](O)[C@@H](O)[C@@H]1O [malonyldaidzin, 6″-O-malonyldaidzin]
4. CC(=O)OC[C@H]1O[C@@H](Oc2cc(O)c3c(=O)c(-c4ccc(O)cc4)coc3c2)[C@H](O)[C@@H](O)[C@@H]1O [acetylgenistin, 6″-O-acetylgenistin]
5. COc1cc2c(=O)c(-c3ccc(O)cc3)coc2cc1O[C@@H]1O[C@H](COC(C)=O)[C@@H](O)[C@H](O)[C@H]1O [acetylglycitin, 6″-O-acetylglycitin]

## Result
1. 4.5
2. 0
3. 84
4. 93.8
5. 98.1
